- experimental.system: T1, mouse TrkB.hFc (mouse)
- T1 construct: also called mTrkB.hFc; mTrkB-hFc
- T1 sequence (chain, as listed by the source limits assumed): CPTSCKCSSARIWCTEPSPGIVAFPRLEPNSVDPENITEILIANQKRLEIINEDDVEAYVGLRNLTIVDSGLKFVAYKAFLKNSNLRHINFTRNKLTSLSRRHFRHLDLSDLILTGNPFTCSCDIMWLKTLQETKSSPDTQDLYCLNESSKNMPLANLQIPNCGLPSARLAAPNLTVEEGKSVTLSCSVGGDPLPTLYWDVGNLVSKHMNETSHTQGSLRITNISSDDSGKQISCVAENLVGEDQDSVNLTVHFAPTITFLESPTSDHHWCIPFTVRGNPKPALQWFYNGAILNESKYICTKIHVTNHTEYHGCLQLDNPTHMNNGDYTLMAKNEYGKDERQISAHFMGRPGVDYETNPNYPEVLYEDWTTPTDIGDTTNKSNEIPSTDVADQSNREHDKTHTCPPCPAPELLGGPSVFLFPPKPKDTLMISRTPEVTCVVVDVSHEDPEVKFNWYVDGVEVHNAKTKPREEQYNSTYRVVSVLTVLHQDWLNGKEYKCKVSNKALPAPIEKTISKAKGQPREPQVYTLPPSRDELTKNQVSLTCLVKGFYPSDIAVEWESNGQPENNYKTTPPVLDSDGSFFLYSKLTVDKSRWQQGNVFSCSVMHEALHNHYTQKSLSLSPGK
- assay.explanation: BLI Octet, captured mTrkB.hFc saturated with BDNF, 300 nM mAb
- Method: Blocking of anti-human TrkB or anti-mouse TrkB antibodies from binding to TrkB by BDNF or NT-4 was evaluated using a real-time bio-layer interferometry (BLI) based Octet HTX instrument. The entire study was performed in 10 mM HEPES pH 7.4, 300 mM NaCl, 3 mM EDTA, 1 mg/mL BSA, 0.02% NaN3 and 0.05% v/v Surfactant Tween-20 (HBS-EBT running buffer) at 25° C. […] Binding of TrkB mAbs to the complex of TrkB and BDNF, hNT-4, or mNT-4 was determined using Scrubber 2.0c analysis software.
attribute.measured: antibody Binding (nm)
Give the number; nm is assumed, so skip it.

Request: Name the recorded antibody Binding (nm) of the item M2aM14179N (antibody, mouse IgG2a, kappa, V domains shown, Anti-mouse TrkB antibody from hybridoma, mouse IgG2a Fc; also called surrogate anti-mouse TrkB antibody) VH: EVQLQQSGPELVKPGASVKISCKASGYTLTDYYMNWVKQSHGKSLEWIGDINPNNGGTSYNQKFKGKATLTVDKSSSTAYMELRSLTSEDSAVYYCARGAYYSNYFDYWGQGTTLTVSS VL: DIVMSQSPSSLAVSAGEKVTMSCKSSQSLLNSRTRKNYLAWYQQKPGQSPKLLIYWASTRESGVPDRFTGSGSGTDFTLTISSVQAEDLAVYYCKQSYILFTFGSGTQLEIKR in your answer.
Response: 0.44
